The following compounds are shown together with reported DC50 values.
TESTED ON: STAT6 (Homo sapiens, UniProt P42226)
Construct: These cells express endogenous STAT6; host or cells: HeLa LgBiT clone 4.14
Sequence (P42226 whole entry): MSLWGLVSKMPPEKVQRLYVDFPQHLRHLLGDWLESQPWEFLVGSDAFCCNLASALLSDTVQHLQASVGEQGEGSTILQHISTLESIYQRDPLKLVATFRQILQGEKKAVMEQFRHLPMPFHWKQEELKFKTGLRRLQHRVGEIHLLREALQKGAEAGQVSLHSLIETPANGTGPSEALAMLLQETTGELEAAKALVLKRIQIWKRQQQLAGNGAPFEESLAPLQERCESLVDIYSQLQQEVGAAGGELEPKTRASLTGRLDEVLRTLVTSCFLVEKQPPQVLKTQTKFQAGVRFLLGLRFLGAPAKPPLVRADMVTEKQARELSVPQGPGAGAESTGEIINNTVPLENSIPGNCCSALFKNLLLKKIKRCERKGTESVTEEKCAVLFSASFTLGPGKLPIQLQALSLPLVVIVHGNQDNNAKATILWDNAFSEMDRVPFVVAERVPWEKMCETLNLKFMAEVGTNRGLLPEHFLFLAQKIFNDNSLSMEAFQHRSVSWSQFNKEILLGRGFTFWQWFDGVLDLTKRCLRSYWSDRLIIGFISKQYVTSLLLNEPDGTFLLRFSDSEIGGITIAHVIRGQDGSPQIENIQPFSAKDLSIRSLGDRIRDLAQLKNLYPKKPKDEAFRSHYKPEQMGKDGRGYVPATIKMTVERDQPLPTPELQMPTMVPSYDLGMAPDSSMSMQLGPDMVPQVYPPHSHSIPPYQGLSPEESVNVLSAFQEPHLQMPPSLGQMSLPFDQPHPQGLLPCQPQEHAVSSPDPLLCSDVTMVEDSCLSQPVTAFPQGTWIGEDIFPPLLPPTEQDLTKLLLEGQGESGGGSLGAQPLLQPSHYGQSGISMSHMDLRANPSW
ASSAY SUMMARY: Stat6 Degrader Assay (HiBiT based, HeLa LgBiT clone 4.14)
Format: cell-based
CONDITION PARAMETERS: HeLa LgBiT clone 4.14 HiBiT-STAT6, 4-24 h incubation; values given for compounds with >80% Emax; geometric mean; read-out: STAT6 degradation DC50
PROPERTY NAME: DC50

COMPOUND	RECORDED RESULT
Cc1cc(C(=O)N2CCC(CN3CCN(Cc4cc5c(cc4F)n(C4CCC(=O)NC4=O)c(=O)n5C4CC4)CC3)CC2)cc(F)c1C1=CCN([C@@H](C)c2cc3c(-n4ccc5c(c4=O)CCN5)ccnc3n2C)CC1 (some centres unmarked) [Example 3u146]	1.7 nM
CNc1ccn(-c2ccnc3c2cc([C@H](C)N2CCC(c4ccc(C(=O)N5CCC(CN6CCN(Cc7ccc8c(c7)C(C)(C)C(=O)N8[C@@H]7CCC(=O)NC7=O)C[C@@H]6C)CC5)cc4)CC2)n3C)c(=O)c1 (single isomer, unassigned) [Example 3u189]	4.7 nM

###

TESTED ON: STAT6 (Homo sapiens, UniProt P42226)
Construct: These cells express endogenous STAT6; host or cells: HeLa LgBiT clone 4.14
ASSAY SUMMARY: Stat6 Degrader Assay (HiBiT based, HeLa LgBiT clone 4.14)
Format: cell-based
CONDITION PARAMETERS: HeLa LgBiT clone 4.14 HiBiT-STAT6, 4-24 h incubation; values given for compounds with >80% Emax; geometric mean; read-out: STAT6 degradation DC50
Method: This was a HiBit based assay. A HeLa cell line stably transfected with a small protein, LgBit (Large Bit) was obtained from Promega. These cells express endogenous STAT6. […] Single cell clones were prepared and the clone 4.14 was selected for the assay based on that clone showing high luminescence, high STAT6 phosphorylation upon stimulation with IL-4, and inhibition of luminescence when cells were treated with STAT6 siRNA. […]
PROPERTY NAME: DC50 (nM)

COMPOUND	READOUT UNITS	RECORDED RESULT
CNc1ccn(-c2ccnc3c2cc(CN2CC=C(c4c(C)cc(C(=O)N5CCC(CN6CCN(Cc7ccc8c(c7)C(C)(C)C(=O)N8[C@@H]7CCC(=O)NC7=O)C[C@@H]6C)CC5)cc4F)CC2)n3C)c(=O)c1 (single isomer, unassigned) [Example 3u180]	nM	8.8
CNc1cc(=O)n(-c2ccnc3c2cc([C@H](C)N2CC=C(c4c(F)cc(C(=O)N5CCC(CN6CCN(c7ccc8c(c7)C7(CC7)C(=O)N8C7CCC(=O)NC7=O)CC6)CC5)cc4F)CC2)n3C)cc1F (some centres unmarked) [Example 3u300]	nM	13
CNc1ccn(-c2ccnc3c2cc([C@H](C)N2CCC(c4c(F)cc(C(=O)N5CCC(CN6CCN(Cc7ccc8c(c7)C(C)(C)C(=O)N8C7CCC(=O)NC7=O)C[C@@H]6C)CC5)cc4F)CC2)n3C)c(=O)c1 (some centres unmarked) [Example 3u80]	nM	0.8
CNc1cc(=O)n(-c2ccnc3c2cc([C@H](C)N2CC=C(c4c(F)cc(C(=O)N5CCC(CN6CCN(Cc7ccc8c(c7)n(C7CC7)c(=O)n8[C@@H]7CCC(=O)NC7=O)C[C@@H]6C)CC5)cc4F)CC2)n3C)cc1F (single isomer, unassigned) [Example 3u130]	nM	1.3
Cc1cc(C(=O)N2CCC(CN3CCN(Cc4cc5c(cc4F)n([C@H]4CCC(=O)NC4=O)c(=O)n5C)CC3)CC2)cc(F)c1C1=CCN([C@@H](C)c2cc3c(-n4ccc5c(c4=O)CCN5)ccnc3n2C)CC1 (single isomer, unassigned) [Example 3u75]	nM	0.6
CNc1cc(=O)n(-c2ccnc3c2cc([C@H](C)N2CC=C(c4c(C)cc(C(=O)N5CCC(CN6CCN(Cc7cc8c(cc7F)N([C@H]7CCC(=O)NC7=O)C(=O)C87CC7)CC6)CC5)cc4F)CC2)n3C)cc1F (single isomer, unassigned) [Example 3u154]	nM	6.4
CNc1cc(=O)n(-c2ccnc3c2cc(CN2CCC(c4c(F)cc(C(=O)N5CCC(CN6CCN(Cc7ccc8c(c7)C(C)(C)C(=O)N8[C@@H]7CCC(=O)NC7=O)C[C@@H]6C)CC5)cc4F)CC2)n3C)cc1F (single isomer, unassigned) [Example 3u50]	nM	0.9
CNc1ccn(-c2ccnc3c2cc([C@H](C)N2CC=C(c4c(C)cc(C(=O)N(C)c5ccc(C6CCN(Cc7ccc8c(c7)n(C)c(=O)n8[C@H]7CCC(=O)NC7=O)CC6)cc5)cc4F)CC2)n3C)c(=O)c1 (single isomer, unassigned) [Example 3u226]	nM	0.05
